molecular target: GCN2 (Homo sapiens); experiment: GCN2 enzymatic endpoint assay: phosphorylation of GFP-eIF2α measured by TR-FRET (Lanthascreen); type: biochemical; conditions: tested as described in Example 77; compound and/or hydrochloride, dihydrochloride or trifluoroacetic acid salt; read-out: IC 50 Activity
endpoint name: IC50

The following compounds have reported results that may help.
cpd smiles | IC50
CNC(=O)[C@]1(C)CC[C@@H](Nc2ncc3c(Br)nn(-c4cc(Cl)cc(CNS(C)(=O)=O)c4)c3n2)C1 | 0.025 to 0.2 µM
CNC(=O)[C@]1(C)CC[C@@H](Nc2ncc3c(Br)nn(-c4ccc5c(c4)CCCN5)c3n2)C1 | 0.025 to 0.2 µM
CNC(=O)[C@]1(C)CC[C@@H](Nc2ncc3c(Br)nn(-c4cc(CCO)c5nc(C)ccc5c4)c3n2)C1 | 0.025 to 0.2 µM

*Q* Give a short answer stating reported IC50 for `Cn1cccc(NC(=O)[C@@H]2CC[C@@H](Nc3ncc4c(Br)nn(-c5cc(F)c6ncccc6c5)c4n3)C2)c1=O` .
*A* 0.025 to 0.2 µM

====

molecular target: GCN2 (Homo sapiens, UniProt Q9P2K8); experiment: GCN2 enzymatic endpoint assay: phosphorylation of GFP-eIF2α measured by TR-FRET (Lanthascreen); assay type: biochemical; details: tested as described in Example 77; compound and/or hydrochloride, dihydrochloride or trifluoroacetic acid salt; read-out: IC 50 Activity
Sequence (Q9P2K8 whole entry): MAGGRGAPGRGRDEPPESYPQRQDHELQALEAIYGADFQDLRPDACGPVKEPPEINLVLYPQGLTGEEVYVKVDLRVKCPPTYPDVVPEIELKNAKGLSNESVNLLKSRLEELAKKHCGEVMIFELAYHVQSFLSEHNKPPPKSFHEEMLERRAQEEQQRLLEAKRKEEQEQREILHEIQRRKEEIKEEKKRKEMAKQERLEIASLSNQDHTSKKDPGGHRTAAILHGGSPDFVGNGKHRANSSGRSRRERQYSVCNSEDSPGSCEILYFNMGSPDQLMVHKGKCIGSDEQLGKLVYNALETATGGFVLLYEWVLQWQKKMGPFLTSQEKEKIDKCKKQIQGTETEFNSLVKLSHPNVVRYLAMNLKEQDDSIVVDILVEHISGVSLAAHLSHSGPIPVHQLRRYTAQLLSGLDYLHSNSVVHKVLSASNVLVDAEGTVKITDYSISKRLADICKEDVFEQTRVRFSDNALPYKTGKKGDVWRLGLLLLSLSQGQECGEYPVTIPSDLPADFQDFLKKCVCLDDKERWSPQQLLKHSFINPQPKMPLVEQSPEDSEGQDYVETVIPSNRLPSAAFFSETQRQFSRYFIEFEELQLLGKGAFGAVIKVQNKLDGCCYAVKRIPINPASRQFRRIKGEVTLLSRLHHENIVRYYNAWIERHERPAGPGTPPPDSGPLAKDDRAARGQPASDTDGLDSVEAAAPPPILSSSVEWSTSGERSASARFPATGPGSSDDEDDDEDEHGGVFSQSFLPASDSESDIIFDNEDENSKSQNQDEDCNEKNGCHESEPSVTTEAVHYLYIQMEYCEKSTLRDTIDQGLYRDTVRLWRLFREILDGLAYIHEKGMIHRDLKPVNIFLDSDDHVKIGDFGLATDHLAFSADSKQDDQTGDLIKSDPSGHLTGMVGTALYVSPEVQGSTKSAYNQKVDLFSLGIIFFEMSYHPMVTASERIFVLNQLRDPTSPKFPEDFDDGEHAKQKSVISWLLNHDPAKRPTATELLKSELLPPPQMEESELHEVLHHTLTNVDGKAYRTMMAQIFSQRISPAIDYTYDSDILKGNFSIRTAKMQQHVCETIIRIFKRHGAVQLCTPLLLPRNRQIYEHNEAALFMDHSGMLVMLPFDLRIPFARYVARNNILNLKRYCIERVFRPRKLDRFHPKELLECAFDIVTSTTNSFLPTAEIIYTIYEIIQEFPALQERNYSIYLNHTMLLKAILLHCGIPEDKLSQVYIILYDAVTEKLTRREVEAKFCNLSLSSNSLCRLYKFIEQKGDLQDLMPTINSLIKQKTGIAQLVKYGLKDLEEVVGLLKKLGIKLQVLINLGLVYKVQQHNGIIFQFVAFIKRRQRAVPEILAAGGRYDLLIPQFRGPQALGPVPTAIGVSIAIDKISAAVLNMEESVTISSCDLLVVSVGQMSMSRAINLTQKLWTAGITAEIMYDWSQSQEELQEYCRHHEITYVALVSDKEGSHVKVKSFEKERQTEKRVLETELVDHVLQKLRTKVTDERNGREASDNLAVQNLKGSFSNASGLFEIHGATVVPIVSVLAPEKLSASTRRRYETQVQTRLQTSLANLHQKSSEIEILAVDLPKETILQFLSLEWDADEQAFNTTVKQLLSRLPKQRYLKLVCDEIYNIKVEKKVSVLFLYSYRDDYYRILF
pIC50: −log10 of the molar value.
Parameter pIC50: see the listing below.

Example compounds with recorded pIC50:
compound | target or system | pIC50
CNC(=O)C1(C)CC[C@@H](Nc2ncc3c(Br)nn(-c4ccc(-c5cnn(CCOC)c5)cc4)c3n2)C1 (stereo partly shown) | GCN2 (Homo sapiens, UniProt Q9P2K8) | 6.70 to 7.60
N#Cc1cc(-n2nc(Br)c3cnc(N[C@@H]4CC[C@@H](C(=O)NC5CCS(=O)(=O)CC5)C4)nc32)cc2cccnc12 | GCN2 (Homo sapiens, UniProt Q9P2K8) | 6.70 to 7.60
CNC(=O)[C@]1(C)CC[C@@H](Nc2ncc3c(Br)nn(-c4cc(C#N)cc(OCCO)c4)c3n2)C1 | GCN2 (Homo sapiens, UniProt Q9P2K8) | 6.70 to 7.60
COCCNC(=O)[C@@H]1CC[C@@H](Nc2ncc3c(Br)nn(-c4cc(F)c5ncccc5c4)c3n2)C1 | GCN2 (Homo sapiens, UniProt Q9P2K8) | 6.70 to 7.60
Cc1cn2c(n1)CN(C(=O)[C@@H]1CC[C@@H](Nc3ncc4c(Br)nn(-c5cc(F)c6ncccc6c5)c4n3)C1)CC2 | GCN2 (Homo sapiens, UniProt Q9P2K8) | 6.70 to 7.60

*Q* Let me know recorded pIC50 for CC1(O)CC[C@@H](Nc2ncc3c(Br)nn(-c4cc(CCN)c5ncccc5c4)c3n2)C1 (stereo partly shown) , thanks.
*A* 6.70 to 7.60

*Q* Find the measured pIC50 of `CN(C)S(=O)(=O)[C@@H]1CC[C@@H](Nc2ncc3c(Br)nn(-c4ccc5ncccc5c4)c3n2)C1` and report it.
*A* 6.70 to 7.60

*Q* Report pIC50 for `CNC(=O)[C@]1(C)CC[C@@H](Nc2ncc3c(Br)nn(-c4cc5c(c(OCC(F)F)c4)N(C)C(=O)CO5)c3n2)C1`
*A* > 7.60

*Q* Please give measured pIC50 of the following entry: `CNC(=O)[C@@]1(CC(F)F)CC[C@@H](Nc2ncc3c(Br)nn(-c4cc(CCO)c5ncccc5c4)c3n2)C1`
*A* 6.70 to 7.60

From: patent US11046699B2
